Experiment: Inhibition of X4-tropic HIV1 3B gp120-mediated entry into human MT2 cells assessed as Inhibition of p24 production incubated overnight followed by compound wash-out measured after 4 days post-infection by multi-cycle neutralization assay
Type: cell-based
Conditions: Human immunodeficiency virus 1, 3B, MT2, 96 h
readout.type: IC50 (µM)

>>> print(df.to_string())
                                    compound  bound_type  measurement
 0  COC(=O)[C@@H]1C[C@@H](NC(=O)C(=O)Nc2ccc(Cl)cc2)[C@H](c2ccccc2)N1           >         24.9
 1  Cc1nc(C(NC(=O)C(=O)Nc2ccc(Cl)cc2)C2CCCCN2)sc1CO (mixture of isomers)           =          4.7
 2  CC(=O)c1ccc(NC(=O)C(=O)NC(c2nc(C)c(CCO)s2)C2CCCCN2)cc1 (mixture of isomers)           =         24.5
 3  Cc1ccc(NC(=O)C(=O)NC(c2nc(C)c(CCO)s2)C2CCCCN2)cc1F (mixture of isomers)           =          3.7
 4  Cc1nc(C(NC(=O)C(=O)Nc2ccc(Cl)cc2)C2CCNCC2)sc1CCO (racemic)           =         30.5
 5  Cc1nc(C(NC(=O)C(=O)Nc2ccc(Cl)cc2)C2CCCN2)sc1CCO (mixture of isomers)           =         16.2
 6  Cc1nc(C(NC(=O)C(=O)Nc2ccc(Cl)cc2)C2CCCN2)sc1CO (mixture of isomers)           =         15.4
 7  Cc1nc(C(NC(=O)C(=O)Nc2ccc(Cl)c(F)c2)C2CCCCN2)sc1CO (mixture of isomers)           =          3.8
 8       CCn1cc(NC(=O)C(=O)Nc2ccc(Cl)cc2)cn1           =         11.9
 9  CNCC(NC(=O)C(=O)Nc1ccc(Cl)cc1)c1nc(C)c(CCO)s1 (racemic)           =         24.3
10  Cc1nc(C(NC(=O)C(=O)Nc2ccc(Cl)cc2)C2CCNCC2)sc1CO (racemic)           =         29.8
11  CC1(C)CC(NC(=O)C(=O)Nc2ccc(Cl)cc2)CC(C)(C)N1           =            8
12  Cc1nc(C(NC(=O)C(=O)Nc2ccc(C(F)(F)F)cc2)C2CCCCN2)sc1CO (mixture of isomers)           =          4.6
13  Cc1nc(C(NC(=O)C(=O)NC2CCCCCC2)C2CCCCN2)sc1CO (mixture of isomers)           =         39.3
14  Cc1nc(C(NC(=O)C(=O)Nc2ccc(F)c(Cl)c2)C2CCCCN2)sc1CO (mixture of isomers)           =          9.5
15  Cc1nc(C(NC(=O)C(=O)Nc2ccc(Cl)cc2)C2CCCNC2)sc1CO (mixture of isomers)           =           12
16  Cc1nc(C(NC(=O)C(=O)Nc2ccc(Cl)cc2)C2CCCCN2)sc1CCO (mixture of isomers)           =          4.2
